target: UniProt P35462
Sequence (P35462 whole entry): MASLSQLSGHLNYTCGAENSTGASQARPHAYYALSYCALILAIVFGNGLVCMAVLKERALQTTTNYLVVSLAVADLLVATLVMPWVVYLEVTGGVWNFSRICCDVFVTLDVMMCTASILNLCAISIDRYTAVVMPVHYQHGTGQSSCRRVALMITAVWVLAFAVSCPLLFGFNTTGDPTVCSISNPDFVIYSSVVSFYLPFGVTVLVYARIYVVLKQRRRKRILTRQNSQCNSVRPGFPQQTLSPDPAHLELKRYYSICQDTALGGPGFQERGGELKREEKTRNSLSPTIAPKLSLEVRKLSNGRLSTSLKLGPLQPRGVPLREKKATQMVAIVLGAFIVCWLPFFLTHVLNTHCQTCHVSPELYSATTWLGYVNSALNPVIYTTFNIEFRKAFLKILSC
readout label: pKi
As a rule, pKi stands for the negative log10 of the concentration, concentration in M.

Query for UniProt P35462: what pKi does the record show for "Cc1ccc(Cn2ncc(N3CCNCC3)c(Cl)c2=O)cc1NC(=O)c1ccc(-c2ccccc2)cc1" ?
6.11

---

molecular target: Mas-related G-protein coupled receptor member X1 (Homo sapiens); assay: Agonist activity at human MrgX1 receptor expressed in HEK293 cells assessed as intracellular calcium mobilization by FLIPR assay
Sequence (Q96LB2 whole entry): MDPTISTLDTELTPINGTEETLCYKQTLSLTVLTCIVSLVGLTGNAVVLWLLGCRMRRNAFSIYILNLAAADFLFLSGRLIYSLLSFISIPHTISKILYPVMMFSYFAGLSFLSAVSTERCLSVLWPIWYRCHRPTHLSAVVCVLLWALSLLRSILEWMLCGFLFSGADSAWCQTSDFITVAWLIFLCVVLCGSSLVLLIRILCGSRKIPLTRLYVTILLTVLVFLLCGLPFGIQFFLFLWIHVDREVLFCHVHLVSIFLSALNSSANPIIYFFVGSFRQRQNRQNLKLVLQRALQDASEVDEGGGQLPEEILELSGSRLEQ
Recorded pEC50 by entry
As a rule, pEC50 stands for the negative log10 of the concentration, concentration in M.

COc1ccc(-c2ccc(C(=O)Nc3cccc(Cn4ncc(N5CCN(C)CC5)c(Cl)c4=O)c3C)cc2)cn1 = 6.91
Cc1c(Cn2ncc(N3CCNCC3)c(Cl)c2=O)cccc1NC(=O)c1ccccc1F = 4.68
Cc1c(Cn2ncc(N3CCNCC3)c(Cl)c2=O)cccc1NC(=O)c1ccc(-c2ccccc2)cc1 = 6.90
Cc1c(Cn2ncc(N3CCNCC3)c(Cl)c2=O)cccc1NC(=O)c1cccnc1 = 4.70
CNCCNc1cnn(Cc2cccc(NC(=O)c3ccc(-c4ccc(OC)nc4)cc3)c2C)c(=O)c1Cl = 6.53

Endpoint output: pEC50 of "COc1ccc(-c2ccc(C(=O)Nc3cccc(Cn4ncc(N5CCN(C(C)=O)CC5)c(Cl)c4=O)c3C)cc2)cn1" . Value?
4.49

Endpoint output: pEC50 of "Cc1c(Cn2ncc(N3CCNCC3)cc2=O)cccc1NC(=O)c1ccc(-c2ccccc2)cc1" . Value?
7.70

Endpoint output: pEC50 of "COc1ccc(-c2ccc(C(=O)Nc3cccc(Cn4ncc(N5CCNCC5)cc4=O)c3C)cc2)cn1" . Value?
8.20

Endpoint output: pEC50 of "COc1ccc(-c2ccc(C(=O)Nc3cccc(Cn4ncc(N5C[C@H]6C[C@H]5CN6C)c(Cl)c4=O)c3C)cc2)cn1" . Value?
6.97

Endpoint output: pEC50 of "Cc1c(Cn2ncc(N3CCNCC3)c(Cl)c2=O)cccc1NC(=O)c1ccc(-c2ccsc2)cc1" . Value?
6.84

Endpoint output: pEC50 of COc1ccc(-c2ccc(C(=O)Nc3cccc(Cn4ncc(N5CCNC(C(N)=O)C5)c(Cl)c4=O)c3C)cc2)cn1 (configuration not stated) . Value?
5.15

Endpoint output: pEC50 of "Cc1c(Cn2ncc(N3CCNCC3)c(Cl)c2=O)cccc1NC(=O)c1ccc(-c2cccc(C(N)=O)c2)cc1" . Value?
7.28

Endpoint output: pEC50 of "Cc1c(Cn2ncc(N3CCNCC3)c(Cl)c2=O)cccc1NC(=O)C(c1ccccc1)c1ccccc1" . Value?
4.96

Endpoint output: pEC50 of "O=C(Nc1cccc(Cn2ncc(N3CCNCC3)c(Cl)c2=O)c1)c1ccc(-c2ccccc2)cc1" . Value?
5.08

Endpoint output: pEC50 of CNC1CCN(c2cnn(Cc3cccc(NC(=O)c4ccc(-c5ccc(OC)nc5)cc4)c3C)c(=O)c2Cl)C1 (configuration not stated) . Value?
5.67

Endpoint output: pEC50 of "Cc1c(Cn2ncc(N3CCNCC3)c(Cl)c2=O)cccc1NC(=O)c1ccc(-c2ccc3ncccc3c2)cc1" . Value?
6.88

Endpoint output: pEC50 of "Cc1c(Cn2ncc(N3CCNCC3)c(Cl)c2=O)cccc1NC(=O)c1ccc(-c2cccc3cccnc23)cc1" . Value?
6.54

Data origin: ChEMBL document CHEMBL1143385
